targetDesc: T1, Rat CTGF (Rattus norvegicus, UniProt Q9R1E9)
T1 construct: purchased R&D Systems
T1 sequence (Q9R1E9 25-347): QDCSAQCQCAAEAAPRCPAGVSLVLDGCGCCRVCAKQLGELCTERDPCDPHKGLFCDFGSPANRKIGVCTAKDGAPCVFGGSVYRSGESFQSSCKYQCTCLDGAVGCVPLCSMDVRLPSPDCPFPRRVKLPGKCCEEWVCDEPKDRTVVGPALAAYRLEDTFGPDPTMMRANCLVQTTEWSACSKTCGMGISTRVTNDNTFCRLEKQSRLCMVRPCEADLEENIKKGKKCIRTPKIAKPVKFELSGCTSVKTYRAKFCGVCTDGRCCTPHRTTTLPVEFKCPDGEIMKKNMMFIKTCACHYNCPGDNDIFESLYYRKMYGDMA
assaySummary: SPR binding kinetics and affinity, rat CTGF
runParameters: 25° C., 1:1 binding model
quantity: Rat CTGF kon (M⁻¹ s⁻¹)
Answer with a number only, understood to be in M⁻¹ s⁻¹.

>>> measuredresult("SEQ ID NO: 15: optimized CTGF-binding hNGAL lipocalin mutein (protein, lipocalin mutein) QDSTSDLIPAPPLSKVPLQQNFQDNQFQGKWYVVGLAGNAILREDKQPAKMFATIYELKEDKSYDVTSVRFEAKSCKYTIKTFVPGSQPGEFTAGYIKSAPGQTSTLVRVVSTNYNQHAMVFFKHVTQNREIFVITLYGRTKELTSELKENFIRFSKSLGLPENHIVFPVPIDQCIDG")
120000

Given SEQ ID NO: 5: optimized CTGF-binding hNGAL lipocalin mutein (protein, lipocalin mutein) QDSTSDLIPAPPLSKVPLQQNFQDNQFQGKWYVVGKAGNALREDKEPPKMWATIYELKEDKSYDVTHVHFLTKKCKYLIDTFVPGSQPGEFTIGAIKSGPGLTSPLVRVVSTNYNQHAMVFFKWVSQNREWFTITLYGRTKELTSELKENFIRFSKSLGLPENHIVFPVPIDQCIDG , state its recorded Rat CTGF kon.
294000

Given SEQ ID NO: 3: parent CTGF-binding hNGAL lipocalin mutein (protein, lipocalin mutein) QDSTSDLIPAPPLSKVPLQQNFQDNQFHGKWYVVGRAGNNRLREDKDPPKMWATIYELKEDKSYNVTHVHFMTKKCRYIIDTFVPGSQPGEFTLGAIKSGPGMTSPLVRIVSTNYNQHAMVFFKWVNQNREWFTITLYGRTKELTSELKENFIRFSKSLGLPENHIVFPVPIDQCIDG , state its recorded Rat CTGF kon.
297000
